- TESTED ON: T1, Cdc25, P04821
- T1 sequence (P04821 50-136, looked up): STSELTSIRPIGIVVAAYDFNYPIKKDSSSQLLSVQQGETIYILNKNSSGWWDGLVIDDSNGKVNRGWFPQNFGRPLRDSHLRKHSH
- ASSAY OVERVIEW: SPOT array
- EXPERIMENTAL SETUP: median of control spots 969
MEASURE NAME: SPOT intensity

Take a look at these entries with their results.
BINDER: YLTRPLPSTPNEDSR
SPOT intensity: 0
--
BINDER: SKSRLLIELPEGFFT
SPOT intensity: 66
--
BINDER: NLDRSKISLPDFDDE
SPOT intensity: 35
--
BINDER: RVRKTHVPASKRPSG
SPOT intensity: 0
--
BINDER: TYNRTAFQIPGDQSI
SPOT intensity: 0
--
BINDER: APERAVPILPPRNNV
SPOT intensity: 1
--
BINDER: VPVAPPPPPASLGQS
SPOT intensity: 0
--
BINDER: DLPLPDLPPEPPTEL
SPOT intensity: 2

A. KFIPSRPAPKPPSSA
B. MFLISPPASPPPEFD
C. RTRRRPPPPPIPSTQ
D. VPPVPLPFGIPPFPM
E. WTQRRGPLVVYAEDN
// ascending sort on recorded SPOT intensity # format: label list in the order the request specifies
A, E, B, C, D
